Measured In vitro activity compared to native-type peptide (%), vs GIP, listed per entry for reference.
Target: T1, human GIP receptor (human, UniProt P48546 22-466)
T1 sequence (looked up): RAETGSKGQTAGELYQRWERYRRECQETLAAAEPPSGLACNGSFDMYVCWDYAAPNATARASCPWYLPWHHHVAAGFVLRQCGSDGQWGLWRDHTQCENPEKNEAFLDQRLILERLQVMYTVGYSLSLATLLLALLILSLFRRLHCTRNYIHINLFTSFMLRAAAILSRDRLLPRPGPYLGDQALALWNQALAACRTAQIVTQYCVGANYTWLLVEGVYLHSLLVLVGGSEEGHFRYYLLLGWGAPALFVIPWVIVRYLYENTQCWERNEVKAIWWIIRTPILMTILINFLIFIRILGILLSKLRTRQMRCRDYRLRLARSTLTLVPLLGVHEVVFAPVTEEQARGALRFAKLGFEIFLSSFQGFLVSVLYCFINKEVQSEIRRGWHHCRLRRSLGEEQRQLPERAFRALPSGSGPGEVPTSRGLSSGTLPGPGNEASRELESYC
Experiment: cell-based or functional assay
Bridge positions count the residues as written; N and C are the ends. Square brackets hold non-standard residues; d marks the D form. Ends that are not written are not given here. * marks the point of attachment. Acetyl(2-(4-imidazolyl)) = O=C(Cc1c[nH]cn1)*; Aib = CC(C)(N)C(=O)O

Recorded In vitro activity compared to native-type peptide (%), vs GIP (binder {Acetyl(2-(4-imidazolyl))}-[Aib]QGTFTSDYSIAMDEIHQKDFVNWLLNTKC (bridge 15-19) [triple agonist of SEQ ID NO: 94] ): < 0.1%

GET /value?item= [Acetyl(2-(4-imidazolyl))]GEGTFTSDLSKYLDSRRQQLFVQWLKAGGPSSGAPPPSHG [triple agonist of SEQ ID NO: 11] &field=In vitro activity compared to native-type peptide (%), vs GIP returns < 0.1%

Turning now to a further binder:
[Acetyl(2-(4-imidazolyl))]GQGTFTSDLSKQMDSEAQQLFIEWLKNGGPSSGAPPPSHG [triple agonist of SEQ ID NO: 16] has a reported In vitro activity compared to native-type peptide (%), vs GIP of < 0.1%

Source listed as patent US20230381333A1.
